Target: TRPV1 human (Homo sapiens, UniProt Q8NER1)
Construct: expressed in transfected cells; host or cells: CHO K1 cells
Sequence (Q8NER1 whole entry): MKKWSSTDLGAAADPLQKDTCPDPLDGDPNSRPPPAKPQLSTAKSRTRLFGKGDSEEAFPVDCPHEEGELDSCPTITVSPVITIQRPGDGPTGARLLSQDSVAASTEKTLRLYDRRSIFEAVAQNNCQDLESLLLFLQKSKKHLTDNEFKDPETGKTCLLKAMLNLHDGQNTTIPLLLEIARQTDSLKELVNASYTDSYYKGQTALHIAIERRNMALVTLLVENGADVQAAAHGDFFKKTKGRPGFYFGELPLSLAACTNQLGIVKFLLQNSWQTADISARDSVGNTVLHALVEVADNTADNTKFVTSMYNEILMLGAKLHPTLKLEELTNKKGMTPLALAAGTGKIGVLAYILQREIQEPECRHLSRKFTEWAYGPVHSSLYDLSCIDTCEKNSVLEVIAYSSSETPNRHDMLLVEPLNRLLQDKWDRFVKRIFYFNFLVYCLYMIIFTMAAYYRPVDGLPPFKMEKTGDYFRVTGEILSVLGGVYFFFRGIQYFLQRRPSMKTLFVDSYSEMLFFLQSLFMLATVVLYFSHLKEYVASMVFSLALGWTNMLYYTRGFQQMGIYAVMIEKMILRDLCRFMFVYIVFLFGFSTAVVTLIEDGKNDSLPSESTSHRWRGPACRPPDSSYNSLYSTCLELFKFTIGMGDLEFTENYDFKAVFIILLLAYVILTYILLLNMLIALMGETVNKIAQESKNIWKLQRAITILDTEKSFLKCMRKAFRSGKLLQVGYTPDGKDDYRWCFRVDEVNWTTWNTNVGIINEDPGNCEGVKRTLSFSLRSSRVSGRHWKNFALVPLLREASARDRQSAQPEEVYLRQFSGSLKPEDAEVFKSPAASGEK
Experiment: Functional testing on the vanilloid receptor 1 (VR1/TRPV1): FLIPR Ca2+ influx assay, inhibition of capsaicin (CAP) stimulation
Type: cell-based
Settings: functional (f) FLIPR assay, capsaicin (CAP) 100 nM; Ki from IC50 by Cheng-Prusoff equation
readout-name: Ki (nM)

>>> df
                                   molecule                         target_under_test  unit_name  result
0  CCCCNc1nc(C(F)(F)F)ccc1CNC(=O)C(C)c1cn(C)c2ccc(O)cc12 (stereo not drawn) [example compound 6]  TRPV1 human (Homo sapiens, UniProt Q8NER1)         nM    16.2
1  CC(C(=O)NCc1ccc(C(F)(F)F)nc1N1CCOCC1)c1cn(C)c2ccc(O)cc12 (stereo not drawn) [example compound 10]  TRPV1 human (Homo sapiens, UniProt Q8NER1)         nM    29.3
2  CC(C(=O)NCc1ccc(C(F)(F)F)nc1C1CCOCC1)c1cn(C)c2ccc(O)cc12 (stereo not drawn) [example compound 9]  TRPV1 human (Homo sapiens, UniProt Q8NER1)         nM    45.7
